Recorded inhibition, one value per entry.
Molecular target: fMet-Leu-Phe receptor (Homo sapiens)
Test: FPR1 fluorescent ligand binding inhibitors, SAR follow-up, selectivity assay for FPRL1 ligand SAR project, cell-based, single concentration (AID 763)
Settings: FPR1-expressing cells, hits give high values; at 5.4 µM unless noted
Calls of active or inactive are those of the source. How the calls were made is not given here.

- Compound: "COc1ccc(-c2cn3cccnc3n2)cc1NC(=O)c1ccccc1"
  Measured Attribute: "inhibition"
  Recorded Measurement: "-4.9% [at 6.5 µM] (inactive)"
- Compound: "COc1ccc(-c2cn3cccnc3n2)cc1NC(=O)c1cccc(Cl)c1"
  Measured Attribute: "inhibition"
  Recorded Measurement: "3.4% [at 5.9 µM] (inactive)"
- Compound: "Cc1ccc2nc(N3CCN(c4ccccc4Cl)CC3)nc(-c3ccccc3)c2c1"
  Measured Attribute: "inhibition"
  Recorded Measurement: "-6% (inactive)"
- Compound: "Fc1ccc(-c2cc(C(F)(F)F)nc(N3CCN(c4ccccc4)CC3)n2)cc1"
  Measured Attribute: "inhibition"
  Recorded Measurement: "-1% [at 5.5 µM] (inactive)"
- Compound: "O=C(O)C1CC=CCC1C(=O)N1CCN(c2nc(-c3ccccc3Cl)c3cc(Br)ccc3n2)CC1 (stereo not drawn)"
  Measured Attribute: "inhibition"
  Recorded Measurement: "5.3% [at 4 µM] (inactive)"
- Compound: "CN1CCN(c2nc(-c3ccccc3)c3cc(Cl)ccc3n2)CC1"
  Measured Attribute: "inhibition"
  Recorded Measurement: "6.1% [at 6.6 µM] (inactive)"

API: the following record is the query input.
Prompt: inhibition lookup needed for CCOc1cc(C(=O)Nc2cc(-c3cn4cccnc4n3)ccc2OC)cc(OCC)c1OCC , thanks.
Response: 0% [at 4.7 µM] (inactive)

###

Molecular target: fMet-Leu-Phe receptor (Homo sapiens) (UniProt P21462)
Sequence (P21462 whole entry, looked up): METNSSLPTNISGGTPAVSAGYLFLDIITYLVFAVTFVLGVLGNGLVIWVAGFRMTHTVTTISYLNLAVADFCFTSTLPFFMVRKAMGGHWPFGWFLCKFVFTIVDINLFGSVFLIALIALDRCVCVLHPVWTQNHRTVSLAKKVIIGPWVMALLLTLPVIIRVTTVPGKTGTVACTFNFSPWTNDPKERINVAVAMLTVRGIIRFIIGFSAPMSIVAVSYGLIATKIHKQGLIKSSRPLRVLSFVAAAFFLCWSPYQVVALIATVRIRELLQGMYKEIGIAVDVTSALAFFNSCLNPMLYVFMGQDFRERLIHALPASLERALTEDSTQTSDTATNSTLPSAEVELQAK
Assay: FPR1 fluorescent ligand binding inhibitors, SAR follow-up, selectivity assay for FPRL1 ligand SAR project, cell-based, single concentration (AID 763)
Details: FPR1-expressing cells, hits give high values; at 5.4 µM unless noted
Active and inactive are the calls of the source. No rule for the calls is given here.
Measured Attribute: inhibition

Worked examples follow.
- Smiles Code: "O=C(O)CCCC(=O)N1CCN(c2nc(-c3ccccc3Cl)c3cc(Br)ccc3n2)CC1"
  Target Desc: "fMet-Leu-Phe receptor (Homo sapiens) (UniProt P21462)"
  inhibition: "1.9% [at 4.3 µM] (inactive)"
- Smiles Code: "CCOC(=O)N1CCN(c2nc(-c3cccc(OC)c3)cc(C(F)(F)F)n2)CC1"
  Target Desc: "fMet-Leu-Phe receptor (Homo sapiens) (UniProt P21462)"
  inhibition: "-33.9% (inactive)"

Prompt: inhibition lookup needed for COc1ccc(-c2cn3cccnc3n2)cc1NC(=O)Cc1ccccc1 , thanks.
Response: -1.4% [at 6.2 µM] (inactive)

Prompt: And then COc1ccc(-c2cc(C(F)(F)F)nc(N3CCN(Cc4ccccc4)CC3)n2)cc1 , what is it?
Response: -2.6% [at 5.2 µM] (inactive)

###

Recorded inhibition, one value per entry.
Target: fMet-Leu-Phe receptor (Homo sapiens) (UniProt P21462)
Assay: FPR1 fluorescent ligand binding inhibitors, SAR follow-up, selectivity assay for FPRL1 ligand SAR project, cell-based, single concentration (AID 763)
Conditions: FPR1-expressing cells, hits give high values; at 5.4 µM unless noted
The source made the active and inactive calls. The rule behind the calls is not given here.

Worked examples follow.
- Smiles Code: "CC(C)(C)OC(=O)N1CCN(c2nc(-c3ccccc3)c3cc([N+](=O)[O-])ccc3n2)CC1"
  Measured Attribute: "inhibition"
  Recorded Measurement: "-8.4% [at 5.1 µM] (inactive)"
- Smiles Code: "O=C(O)CCC(=O)N1CCN(c2nc(-c3ccccc3)c3cc(Br)ccc3n2)CC1"
  Measured Attribute: "inhibition"
  Recorded Measurement: "-0.5% [at 4.7 µM] (inactive)"
- Smiles Code: "Clc1cccc(-c2nc(N3CCN(c4ccccn4)CC3)nc3c2COc2ccccc2-3)c1"
  Measured Attribute: "inhibition"
  Recorded Measurement: "1.7% [at 4.9 µM] (inactive)"

Prompt: inhibition lookup needed for FC(F)(F)c1cc(-c2ccccc2)nc(N2CCN(c3cccc(Cl)c3)CC2)n1 , thanks.
Response: -2.5% [at 5.3 µM] (inactive)

Prompt: And then COc1ccc(-c2cn3cccnc3n2)cc1NC(=O)c1ccc(C(C)(C)C)cc1 , what is it?
Response: 5.7% [at 5.6 µM] (inactive)

Prompt: And then COc1ccc(-c2cn3cccnc3n2)cc1NC(=O)C1CCCC1 , what is it?
Response: 6.6% [at 6.6 µM] (inactive)

Prompt: And then Clc1ccccc1-c1nc(N2CCN(c3ccccc3)CC2)nc2ccc(Br)cc12 , what is it?
Response: 1.5% [at 4.6 µM] (inactive)
